target: GABA-A receptor; alpha-1/beta-2/gamma-2 (Rattus norvegicus, UniProt P18508+P62813+P63138); test: Displacement of [3H]Ro-151788 from rat GABA-A receptor alpha-1-beta-2-gamma-2 subunits expressed in HEK293 cells; assay type: cell-based
Sequence (P18508 whole entry): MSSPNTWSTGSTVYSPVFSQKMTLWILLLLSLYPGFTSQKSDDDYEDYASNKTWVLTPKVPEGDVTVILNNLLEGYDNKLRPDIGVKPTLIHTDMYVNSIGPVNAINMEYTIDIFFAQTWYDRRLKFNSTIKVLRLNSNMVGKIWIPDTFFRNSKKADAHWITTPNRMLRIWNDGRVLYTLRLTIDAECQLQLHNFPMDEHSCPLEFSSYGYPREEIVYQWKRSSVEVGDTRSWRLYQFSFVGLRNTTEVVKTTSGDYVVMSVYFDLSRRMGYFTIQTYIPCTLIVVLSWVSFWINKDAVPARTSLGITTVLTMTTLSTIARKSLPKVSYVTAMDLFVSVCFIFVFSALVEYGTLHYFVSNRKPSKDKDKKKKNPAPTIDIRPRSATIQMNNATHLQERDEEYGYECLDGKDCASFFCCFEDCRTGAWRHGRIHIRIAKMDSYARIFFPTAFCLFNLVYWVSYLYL
Sequence (P62813 whole entry): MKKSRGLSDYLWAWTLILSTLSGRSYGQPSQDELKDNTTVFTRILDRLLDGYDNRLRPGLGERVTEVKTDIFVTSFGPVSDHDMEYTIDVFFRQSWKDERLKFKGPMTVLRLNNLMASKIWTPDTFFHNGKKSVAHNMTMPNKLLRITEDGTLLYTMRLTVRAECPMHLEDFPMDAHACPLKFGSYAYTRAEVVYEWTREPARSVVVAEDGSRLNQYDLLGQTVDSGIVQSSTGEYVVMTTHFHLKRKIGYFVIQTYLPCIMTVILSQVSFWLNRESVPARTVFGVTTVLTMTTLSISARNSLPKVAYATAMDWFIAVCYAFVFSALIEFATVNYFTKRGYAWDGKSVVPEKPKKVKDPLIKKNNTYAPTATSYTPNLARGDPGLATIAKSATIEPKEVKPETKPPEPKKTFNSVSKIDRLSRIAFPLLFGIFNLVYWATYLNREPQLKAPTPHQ
Sequence (P63138 whole entry): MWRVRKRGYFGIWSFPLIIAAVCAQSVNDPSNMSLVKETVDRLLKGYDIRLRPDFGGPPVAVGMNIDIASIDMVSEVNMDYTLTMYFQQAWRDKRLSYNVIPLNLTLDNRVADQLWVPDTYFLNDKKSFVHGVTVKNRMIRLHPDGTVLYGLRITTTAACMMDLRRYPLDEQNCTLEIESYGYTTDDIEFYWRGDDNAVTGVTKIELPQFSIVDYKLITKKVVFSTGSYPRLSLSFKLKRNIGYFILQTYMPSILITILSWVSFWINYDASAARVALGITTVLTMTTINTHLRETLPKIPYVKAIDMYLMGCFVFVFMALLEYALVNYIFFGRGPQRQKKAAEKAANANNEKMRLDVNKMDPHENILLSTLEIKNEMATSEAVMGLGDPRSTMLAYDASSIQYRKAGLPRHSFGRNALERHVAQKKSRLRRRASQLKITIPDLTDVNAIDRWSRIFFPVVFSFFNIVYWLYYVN
measured_metric: Ki (nM)
Give bare numbers, in nM.

Tested on GABA-A receptor; alpha-1/beta-2/gamma-2 (Rattus norvegicus, UniProt P18508+P62813+P63138): `[O-][n+]1nc2c(-c3ccsc3)cnn2c2cc(Cl)ccc21` . Observed Ki: 4.1
